- CONDITION INFO: 308.15 K; 101 kPa; Liquid; Pycnometric method
MEASURED METRIC: mass density (kg/m3)

[
  {
    "COMPOUND": "c1ccccc1",
    "MEASUREMENT": 862.9
  },
  {
    "COMPOUND": "Cc1ccc(C)cc1",
    "MEASUREMENT": 848.12
  },
  {
    "COMPOUND": "Cc1ccccc1C",
    "MEASUREMENT": 867.05
  },
  {
    "COMPOUND": "C=CC(=O)OCCCC [butyl 2-propenoate]",
    "MEASUREMENT": 884.6
  },
  {
    "COMPOUND": "Cc1cccc(C)c1",
    "MEASUREMENT": 851.45
  },
  {
    "COMPOUND": "Cc1ccccc1",
    "MEASUREMENT": 852.93
  },
  {
    "COMPOUND": "Cc1cc(C)cc(C)c1",
    "MEASUREMENT": 853.63
  }
]

###

- CONDITION INFO: 288.15 K; 101 kPa; Liquid; Pycnometric method
mass density values for the compounds below.
MEASURED METRIC: mass density (kg/m3)

[
  {
    "COMPOUND": "Cc1ccc(C)cc1",
    "MEASUREMENT": 865.52
  },
  {
    "COMPOUND": "Cc1cc(C)cc(C)c1",
    "MEASUREMENT": 869.28
  },
  {
    "COMPOUND": "Cc1ccccc1",
    "MEASUREMENT": 871.79
  },
  {
    "COMPOUND": "C=CC(=O)OCCCC [butyl 2-propenoate]",
    "MEASUREMENT": 903.6
  },
  {
    "COMPOUND": "Cc1ccccc1C",
    "MEASUREMENT": 884.09
  },
  {
    "COMPOUND": "Cc1cccc(C)c1",
    "MEASUREMENT": 868.59
  },
  {
    "COMPOUND": "c1ccccc1",
    "MEASUREMENT": 884.3
  }
]

###

- CONDITION INFO: 293.15 K; 101 kPa; Liquid; Pycnometric method
# mass density values compiled below

[
  {
    "COMPOUND": "c1ccccc1 [benzene]",
    "UNIT TAG": "kg/m3",
    "mass density": 878.95
  },
  {
    "COMPOUND": "Cc1ccc(C)cc1 [1,4-dimethylbenzene]",
    "UNIT TAG": "kg/m3",
    "mass density": 861.17
  },
  {
    "COMPOUND": "Cc1ccccc1 [toluene]",
    "UNIT TAG": "kg/m3",
    "mass density": 867.08
  },
  {
    "COMPOUND": "Cc1cccc(C)c1 [1,3-dimethylbenzene]",
    "UNIT TAG": "kg/m3",
    "mass density": 864.31
  },
  {
    "COMPOUND": "Cc1ccccc1C [1,2-dimethylbenzene]",
    "UNIT TAG": "kg/m3",
    "mass density": 879.83
  },
  {
    "COMPOUND": "Cc1cc(C)cc(C)c1 [1,3,5-trimethylbenzene]",
    "UNIT TAG": "kg/m3",
    "mass density": 865.37
  },
  {
    "COMPOUND": "C=CC(=O)OCCCC [butyl 2-propenoate]",
    "UNIT TAG": "kg/m3",
    "mass density": 898.85
  }
]

###

- CONDITION INFO: 303.15 K; 101 kPa; Liquid; Pycnometric method
± gives the expanded uncertainty stated by the source.
The entries below are paired with their reported mass density.
MEASURED METRIC: mass density

[
  {
    "MOLECULE": "Cc1ccccc1",
    "MEASUREMENT": "857.64 ± 0.22 kg/m3"
  },
  {
    "MOLECULE": "Cc1ccc(C)cc1",
    "MEASUREMENT": "852.47 ± 0.22 kg/m3"
  },
  {
    "MOLECULE": "C=CC(=O)OCCCC [butyl 2-propenoate]",
    "MEASUREMENT": "889.35 ± 0.28 kg/m3"
  },
  {
    "MOLECULE": "c1ccccc1",
    "MEASUREMENT": "868.26 ± 0.22 kg/m3"
  },
  {
    "MOLECULE": "Cc1ccccc1C",
    "MEASUREMENT": "871.31 ± 0.23 kg/m3"
  },
  {
    "MOLECULE": "Cc1cc(C)cc(C)c1",
    "MEASUREMENT": "857.54 ± 0.25 kg/m3"
  },
  {
    "MOLECULE": "Cc1cccc(C)c1",
    "MEASUREMENT": "855.74 ± 0.23 kg/m3"
  }
]

###

- CONDITION INFO: 318.15 K; 101 kPa; Liquid; Pycnometric method
Entries annotated with measured mass density

[
  {
    "COMPOUND": "c1ccccc1",
    "UNIT TAG": "kg/m3",
    "mass density": 852.23
  },
  {
    "COMPOUND": "C=CC(=O)OCCCC [butyl 2-propenoate]",
    "UNIT TAG": "kg/m3",
    "mass density": 875.1
  },
  {
    "COMPOUND": "Cc1ccc(C)cc1",
    "UNIT TAG": "kg/m3",
    "mass density": 839.42
  },
  {
    "COMPOUND": "Cc1ccccc1",
    "UNIT TAG": "kg/m3",
    "mass density": 843.49
  },
  {
    "COMPOUND": "Cc1cc(C)cc(C)c1",
    "UNIT TAG": "kg/m3",
    "mass density": 845.8
  },
  {
    "COMPOUND": "Cc1cccc(C)c1",
    "UNIT TAG": "kg/m3",
    "mass density": 842.88
  },
  {
    "COMPOUND": "Cc1ccccc1C",
    "UNIT TAG": "kg/m3",
    "mass density": 858.53
  }
]

###

- CONDITION INFO: 313.15 K; 101 kPa; Liquid; Pycnometric method
MEASURED METRIC: mass density (kg/m3)

[
  {
    "COMPOUND": "c1ccccc1 [benzene]",
    "MEASUREMENT": 857.56
  },
  {
    "COMPOUND": "Cc1ccc(C)cc1 [1,4-dimethylbenzene]",
    "MEASUREMENT": 843.77
  },
  {
    "COMPOUND": "Cc1ccccc1 [toluene]",
    "MEASUREMENT": 848.21
  },
  {
    "COMPOUND": "Cc1cc(C)cc(C)c1 [1,3,5-trimethylbenzene]",
    "MEASUREMENT": 849.71
  },
  {
    "COMPOUND": "Cc1cccc(C)c1 [1,3-dimethylbenzene]",
    "MEASUREMENT": 847.17
  },
  {
    "COMPOUND": "Cc1ccccc1C [1,2-dimethylbenzene]",
    "MEASUREMENT": 862.79
  },
  {
    "COMPOUND": "C=CC(=O)OCCCC [butyl 2-propenoate]",
    "MEASUREMENT": 879.85
  }
]

###

- CONDITION INFO: 298.15 K; 101 kPa; Liquid; Pycnometric method
Reported mass density by item:
MEASURED METRIC: mass density (kg/m3)

[
  {
    "MOLECULE": "c1ccccc1 [benzene]",
    "UNIT TAG": "kg/m3",
    "MEASUREMENT": 873.61
  },
  {
    "MOLECULE": "Cc1cc(C)cc(C)c1 [1,3,5-trimethylbenzene]",
    "UNIT TAG": "kg/m3",
    "MEASUREMENT": 861.45
  },
  {
    "MOLECULE": "C=CC(=O)OCCCC [butyl 2-propenoate]",
    "UNIT TAG": "kg/m3",
    "MEASUREMENT": 894.1
  },
  {
    "MOLECULE": "Cc1ccccc1 [toluene]",
    "UNIT TAG": "kg/m3",
    "MEASUREMENT": 862.36
  },
  {
    "MOLECULE": "Cc1ccccc1C [1,2-dimethylbenzene]",
    "UNIT TAG": "kg/m3",
    "MEASUREMENT": 875.57
  },
  {
    "MOLECULE": "Cc1ccc(C)cc1 [1,4-dimethylbenzene]",
    "UNIT TAG": "kg/m3",
    "MEASUREMENT": 856.82
  },
  {
    "MOLECULE": "Cc1cccc(C)c1 [1,3-dimethylbenzene]",
    "UNIT TAG": "kg/m3",
    "MEASUREMENT": 860.02
  }
]
